Experiment: inhibitors of TNFa-induced NFkB p65 translocation, primary screen, imaging, HUVEC, MLSMR starter and 10KST1 sets (AID 438);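 also: compound added about 3h40 before a 20 min TNFalpha stimulation; signal is the nuclear over cytoplasmic p65 intensity ratio per well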
Settings: HUVEC TNFa-induced p65 nuclear translocation; at 2 µM, hits give high values, 0% TNFa-plus-vehicle, 100% no-TNFa wells
measurementName: inhibition (%)
One number for each entry, in %.

As a guide, the following entries are already answered.
compound=CCOc1ccccc1N1Cc2cc(C)c(C)cc2C1 measurementname=inhibition measuredvalue=2.9
compound=COc1ccc(NS(=O)(=O)c2ccc(NC(C)=O)cc2)cc1OC measurementname=inhibition measuredvalue=-8.4

Value sought for every listed compound: inhibition.
1. COc1ccc(N2CCN(C(=O)c3c(-c4ccccc4)noc3C)CC2)cc1
2. COc1nnnc2c1sc1nc(N3CCOCC3)c3c(c12)CC(C)(C)OC3
3. Cc1nnc(N2CCOCC2)c2ccccc12
4. N#Cc1nc(COc2ccccc2)oc1N1CCCC1
5. CC1CCCCC1NC(=O)Cn1nnc(-c2ccc(Cl)cc2)n1 (stereo not given)
6. CN1CCc2c(n(CC(O)CN3C(=O)c4ccccc4S3(=O)=O)c3ccccc23)C1=O (stereo not given)
7. CC1(C)CC(=O)C2=C(C1)OC(N)=C(C#N)C21C(=O)N(CN2CCOCC2)c2ccccc21 (stereo not given)

A)
[1.1, -3.9, -0.6, -4.6, 1.9, -11.7, -2.9]

Could you report inhibition for every entry in the following list?
1. Cc1ccc(CNC(=O)c2cc3c(=O)n4ccccc4nc3n(Cc3ccco3)c2=N)cc1
2. O=C(Oc1cc2oc(=O)c3c(c2cc1Cl)CCCC3)c1ccco1
3. N#Cc1c(NCCCO)nc(-c2ccccc2)c2c1CCCC2
4. COc1ccc(-c2nnnn2C)cc1S(=O)(=O)NCc1ccccc1

A)
[2.6, -14.1, -4.5, 0.6]

List reported inhibition for each of these compounds:
1. CCOC(=O)c1[nH]c2ccc(C)cc2c1N
2. Cc1cc(C)nc(SCC(=O)Nc2ncc3c(n2)CCCC3=O)n1
3. Cn1c(=O)n(CC(=O)OCc2ccccc2)c(=O)c2c1nc1n2CCCN1C1CCCCC1
4. O=C(c1c(F)cccc1F)N(Cc1ccccn1)C1CCCC1
5. Cn1c(NCC(O)c2ccccc2)nc2c1c(=O)n(Cc1ccc(Cl)cc1)c(=O)n2C (stereo not given)
6. Cn1c(=O)c2c(nc(NCCCO)n2Cc2cccc(C(F)(F)F)c2)n(C)c1=O
7. C=CCn1c(-c2ccc(OC)cc2)nc2ccccc21
8. CCOC(=O)c1sc2nc(N3CCCC3)c3c(c2c1N)CC(C)(C)OC3

A)
1: -29.2; 2: -8.6; 3: 3.2; 4: -11.2; 5: 8.4; 6: -11.8; 7: -3.5; 8: 2.7

Each compound below has a reported value. Please supply its inhibition.
1. CC(C)(C)c1cc(-c2ccco2)c(C#N)c(SCC#N)n1
2. CC(=O)c1c(C)[nH]c(C(=O)Nc2c(C)n(C)n(-c3ccccc3)c2=O)c1C
3. O=C(NCCSc1c[nH]c2ccccc12)c1ccc(Br)o1
4. O=c1c2ccccc2ncn1Cc1ccco1
5. COC(=O)NC(Nc1sc2c(c1C(N)=O)CCCC2)(C(=O)OC)C(F)(F)F (stereo not given)
6. CCOC(=O)c1cnn(-c2sc(C(=O)OCC)c(C)c2C(=O)OCC)c1N
7. CN(C)CCCN1C(=O)C(=O)/C(=C(/O)c2ccccc2)C1c1ccccn1 (stereo not given)

A)
1: 6.9; 2: 2; 3: 3.9; 4: -8.5; 5: 11.7; 6: -1.9; 7: -8.2

The reported measurements were obtained from PubChem BioAssay.
